Target: purified human Factor XIa (Homo sapiens (Human))
Sequence (P03951 whole entry, looked up): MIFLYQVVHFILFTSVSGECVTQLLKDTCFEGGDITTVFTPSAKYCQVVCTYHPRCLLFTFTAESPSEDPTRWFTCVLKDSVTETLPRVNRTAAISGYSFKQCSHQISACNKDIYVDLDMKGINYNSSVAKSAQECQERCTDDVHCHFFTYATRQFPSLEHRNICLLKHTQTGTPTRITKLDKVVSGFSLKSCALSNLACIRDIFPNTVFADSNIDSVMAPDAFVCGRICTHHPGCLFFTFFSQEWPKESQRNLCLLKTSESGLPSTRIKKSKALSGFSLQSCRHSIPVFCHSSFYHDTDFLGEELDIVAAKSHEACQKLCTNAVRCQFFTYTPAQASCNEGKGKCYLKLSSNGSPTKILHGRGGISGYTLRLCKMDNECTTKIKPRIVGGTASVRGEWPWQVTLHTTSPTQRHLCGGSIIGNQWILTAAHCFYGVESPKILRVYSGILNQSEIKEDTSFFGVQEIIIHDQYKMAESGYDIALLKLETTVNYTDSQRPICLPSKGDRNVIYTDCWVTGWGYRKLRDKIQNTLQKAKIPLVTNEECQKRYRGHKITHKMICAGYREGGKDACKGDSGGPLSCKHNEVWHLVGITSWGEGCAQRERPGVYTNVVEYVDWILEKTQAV
Sequence (P03951 whole entry partner, looked up): as the sequence (P03951 whole entry, looked up) above
Test: biochemical
Format: biochemical
Conditions: read-out: Factor XIa Ki
Counter-ions that a name gives are not always drawn.
parameter_measured: log10 of Ki (log10 of the value in nM)
Answers are given as log10 of Ki in nM.

Solved cases (2 shown):
compound: Cc1[nH]c2cc3c(cc2c1C(=O)O)-c1ccnc(c1)[C@@H](N1CCC(c2c(F)ccc(Cl)c2F)=CC1=O)CCC[C@@H](C)C(=O)N3 [Example 83, TFA salt]
log10 of Ki: -1.22

compound: C[C@@H]1CCC[C@H](N2CCC(c3c(C#N)ccc(C#N)c3F)=CC2=O)c2cc(ccn2)-c2cc(F)c(F)cc2NC1=O [Example 210, TFA salt]
log10 of Ki: 2.68

Noted log10 of Ki for C[C@@H]1CCC[C@H](N2CCC(c3c(F)ccc(Cl)c3F)=CC2=O)c2cc(ccn2)-n2nc(C(=O)O)cc2NC1=O , tested on purified human Factor XIa (Homo sapiens (Human)): 1.95

Noted log10 of Ki for C[C@@H]1CCC[C@H](N2CCC(c3c(F)ccc(Cl)c3F)=CC2=O)c2cc(ccn2)-c2ccc(Nc3ccccn3)cc2NC1=O , tested on purified human Factor XIa (Homo sapiens (Human)): 0.02

Noted log10 of Ki for C[C@@H]1CCC[C@H](N2CCC(c3c(F)ccc(Cl)c3F)=CC2=O)c2cc(ccn2)-c2ccc(Nc3cccnc3)cc2NC1=O [Example 195, TFA salt] , tested on purified human Factor XIa (Homo sapiens (Human)): -0.33

Noted log10 of Ki for C[C@@H]1CCC[C@H](N2CCC(c3c(F)ccc(Cl)c3F)=CC2=O)c2cc(ccn2)-c2ccc(NC(=O)CC(=O)OC(C)(C)C)cc2NC1=O [Example 87, TFA salt] , tested on purified human Factor XIa (Homo sapiens (Human)): 1.24

Noted log10 of Ki for C[C@@H]1CCC[C@H](N2CCC(c3c(F)ccc(Cl)c3F)=CC2=O)c2cc(ccn2)-c2ccc(N)cc2NC1=O , tested on purified human Factor XIa (Homo sapiens (Human)): 0.18

Noted log10 of Ki for COC(=O)Nc1ccc2c(c1)NC(=O)[C@H](C)CCC[C@H](N1CCC(C3CCCC(C)C3)=CC1=O)c1cc-2ccn1 (stereo partly shown) , tested on purified human Factor XIa (Homo sapiens (Human)): 1.80

Noted log10 of Ki for COC(=O)Nc1ccc2c(c1)NC(=O)[C@H](C)CCC[C@H](N1CCC(c3c(C#N)ccc4c(N)noc34)=CC1=O)c1cc-2cc(OC)n1 [Example 9, TFA salt] , tested on purified human Factor XIa (Homo sapiens (Human)): 1.52

Noted log10 of Ki for C[C@@H]1CCC[C@H](n2ccc(-c3c(F)ccc(Cl)c3F)cc2=O)c2cc(ccn2)-c2c(F)cccc2NC1=O [Example 200, TFA salt] , tested on purified human Factor XIa (Homo sapiens (Human)): 1.26

Noted log10 of Ki for COC(=O)Nc1ccc2c(c1)NC(=O)[C@H](C)CCC[C@H](N1CCC(c3c(F)ccc(Br)c3F)=CC1=O)c1cc-2ccn1 , tested on purified human Factor XIa (Homo sapiens (Human)): -0.57

Reference for the values: patent US9409908B2
